// values below are reported protein stability index
B1: RHOBTB2 (parent)
chain: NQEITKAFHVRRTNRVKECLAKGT

Variants of: B1
procedure summary: protein stability index of a GFP-peptide fusion (GPS, HEK-293T) (PSI 1-6); higher = more stable;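 note: lentivirally expressed fusions sorted by FACS into six bins by GFP to DsRed ratio, PSI derived from sequencing read proportions per bin multiplied by bin number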
conditions: c terminus: a fixed tail appended
measurement kind: protein stability index

A21F: 2.85
T5Q: 4.06
N1M: 2.66
K22P: 3.04
T5A: 3.75
K17R: 2.47
K6T: 3.43
R15P: 3.29
K6G: 3.49
R15M: 3.78
V16Q: 2.79
